target: acetylcholine receptor; assay: SPR, peptide at 10 uM over immobilized acetylcholine receptor
Measured Binding affinity (RU) of individual entries
The reply should contain only the number, in RU.

Examples with answers:
>  <Binder>
KWLYRR [6mer-2-126]

>  <Quantity Kind>
Binding affinity (RU)

>  <Unit String>
RU

>  <Val>
148

$$$$
>  <Binder>
KRYTRK [6mer-2-117]

>  <Quantity Kind>
Binding affinity (RU)

>  <Unit String>
RU

>  <Val>
148

$$$$

Any idea what its Binding affinity (RU) is? The binder is RWIYKR [6mer-2-74]
136

Look up Binding affinity (RU) for this binder: RQLSKR [6mer-2-79]
135

Entry KWQYRK [6mer-2-115] : reported Binding affinity (RU) = ?
144

Param item = RRQYKR [6mer-2-80] ; retrieve measured Binding affinity (RU).
148

Recorded Binding affinity (RU) for KRVYRK [6mer-2-121] , please?
137

// Binding affinity (RU) lookup, key: KSQYKR [6mer-2-85]
137

Please give the measured Binding affinity (RU) for this binder: KWQLKR [6mer-2-124]
126

Find the recorded Binding affinity (RU) belonging to KLYCKK [6mer-2-132] and report it.
139

Would you kindly share the measured Binding affinity (RU) for KQYQRR [6mer-2-83] ?
135
